MEASUREMENT_PROTOCOL: soluble on expression in E. coli; label from the status in PepcDB or PDB records
ASSAY_ENDPOINT: soluble on expression in E. coli

# example entries with known answers
SEQUENCE_CHAIN: ASGSMQGDPDVLRLLNEQLTSELTAINQYFLHSKMQDNWGFTELAAHTRAESFDEMRHAEEITDRILLLDGLPNYQRIGSLRIGQTLREQFEADLAIEYDVLNRLKPGIVMCREKQDTTSAVLLEKIVADEEEHIDYLETQLELMDKLGEELYSAQCVSRPPTSAWSHPQFEK
soluble on expression in E. coli: soluble

SEQUENCE_CHAIN: MLLKSIHHIAIICSDYEKSKAFYVHKLGFQVIQETYREERGSYKLDLSLNGSYVIELFSFPDPPERQTRPEAAGLRHLAFTVGSLDKAVQELHEKGIETEPIRTDPLTGKRFTFFFDPDQLPLELYEQ
soluble on expression in E. coli: not soluble

SEQUENCE_CHAIN: GSHMVTIVRIYLDGVYGIGKSTTGRVMASAASGGSPTLYFPEPMAYWRTLFETDVISGIYDTQNRKQQGNLAVDDAALITAHYQSRFTTPYLILHDHTCTLFGGNSLQRGTQPDLTLVFDRHPVASTVCFPAARYLLGDMSMCALMAMVATLPREPQGGNIVVTTLNVEEHIRRLRTRARIGEQIDITLIATLRNVYFMLVNTCHFLRSGRVWRDGWGELPTSCGAYKHRATQMDAFQERVSPELGDTLFALFKTQELLDDRGVILEVHAWALDALMLKLRNLNVFSADLSGTPRQCAAVVESLLPLMSSTLSDFDSASALERAARTFNAEMGV
soluble on expression in E. coli: soluble

SEQUENCE_CHAIN: SLTTQRLGLIMNGVTGRMGLNQHLIRSIVAIRDQGGVRLKNGDRIMPDPILVGRSAEKVEALAKRFNIARWTTDLDAALADKNDTMFFDAATTQARPGLLTQAINAGKHVYCEKPIATNFEEALEVVKLANSKGVKHGTVQDKLFLPGLKKIAFLRDSGFFGRILSVRGEFGYWVFEGGWQEAQRPSWNYRDEDGGGIILDMVCHWRYVLDNLFGNVQSVVCIGNTDIPERFDEQGKKYKATADDSAYATFQLEGGVIAHINMSWVTRVYRDDLVTFQVDGTHGSAVAGLSDCMIQARQATPRPVWNPDEKRLHDFYGDWQKLPDNVSYDNGFKEQWEMFIRHVYEDAPYKFTLLEGAKGVQLAECALKSWKERRWIDVAPIK
soluble on expression in E. coli: soluble

SEQUENCE_CHAIN: GAMMPVPNPTMPVKGAGTTLWVYKGSGDPYANPLSDVDWSRLAKVKDLTPGELTAESYDDSYLDDEDADWTATGQGQKSAGDTSFTLAWMPGEQGQQALLAWFNEGDTRAYKIRFPNGTVDVFRGWVSSIGKAVTAKEVITRTVKVTNVGRPSMAE
soluble on expression in E. coli: soluble

SEQUENCE_CHAIN: MIGRLRGIIIEKQPPLVLIEVGGVGYEVHMPMTCFYELPEAGQEAIVFTHFVVREDAQLLYGFNNKQERTLFKELIKTNGVGPKLALAILSGMSAQQFVNAVEREEVGALVKLPGIGKKTAERLIVEMKDRFKGLHGDLFTPAADLVLTSPASPATDDAEQEAVAALVALGYKPQEASRMVSKIARPDASSETLIREALRAAL
soluble on expression in E. coli: soluble

SEQUENCE_CHAIN: MGSDKIHHHHHHMNYKLISIDLAKTVFQVAAFNPDNTIAFNRKINRPALLDMLRQCEPTLVVMEACYSANYWGRTIEKLGHTVKLIPARMVKAMLVGNKNDANDAVAIGETAGRPKVSLLRPKTVEQQDIQSLLRIRERLVENRTANCNQLRGFLAEYGLIVAKTRRQLMLAIPLILEDADNELSTVARGFIQRLYEFQLYLNEQIDQVAQDILALAQAMPQYPLLLTIPGVGPIVASTLLASINEVNDFKNGRQLAAWLGLTPSQYSSGTTNRLGKITKRGNQTLRRLLIHGARTVVNWCDKKDDSLSLWLQRLKQRQHVCKVTVALANKMARMVFVVMSRGQAFDMNKACKLAT
soluble on expression in E. coli: not soluble

SEQUENCE_CHAIN: MKRLADVKISTLDLVPVRHDKGPADSLRNSLNLAQHVEKLGYNRFWVAEHHNMDGIASSATSVLLAYLAGGTSTIRVGAGGIMLPNHAPLVVAEQFGTLASLYPGRIDLGLGRAPGSDQMTARALRRERSGSAEDFPDDVTELMEYLGPRTPDQKVIAVPGSDTNVPIWLLGSSLFSAQLAGMRGLPYAFASHFAPRYMHEAIRVYRNHFQPSAVLDKPYVMLGVPLSAADTDEHAEYLATSVYQRILALMRGHSLMQRPPVESMDGLWLPHEREAVASFLGLAMVGGPDKIRAKLDVLLEQTDADELIFTCDMYEHEDRLRSYEILAQVAQG
soluble on expression in E. coli: not soluble

Request the reported soluble on expression in E. coli associated with MMENYITSFQLRFCPAAYLHLEQLPSLWRSILPYLPQWRDSAHLNAALLDEFSLDTDYEEPHGLGALPLQPQSQLELLLCRLGLVLHGEAIRRCVLASPLQQLLTLVNQETLRQIIVQHELLIGPWPTHWQRPLPTEIESRTMIQSGLAFWLAAMEPQPQAWCKRLSLRLPLATPSEPWLVAESQRPLAQTLCHKLVKQVTPTCSHLFK not soluble

What about this sequence? MDWVRLLSRLVQAESLPGEEGEAAGLLLEALKGMGLEATLDEAGNIEALLGEKGPEVVLTGHMDVVPVGDPARWPYPQGAVAEGSLWGRGAVDMKGSLVAMLLALETLARGALKGRVRFLAVVQEEVGGLGSRFAAERLSPLAFVLGEPSSGRLMRGHRGRRKVWADFEGRETHAALAGPENPLFDLGAYLLALQDLPLPPGVKLTPTRVDTHPGARNQTPGVVRLYLDVRYEPEADLDGLLAALRTLGPASVYLPEEERASGEVRMTLPALWPPYRLPEDHPLLQAALQALGQEEAGLWPFTTDAPYLGAKAPVLGLGPGDPALAHTPMEHVPLRAVEEAAQAYVRLVEALWNAD soluble

What about this sequence? MSLKKPALKYCGIRSLKDLQLAAESQADYLGFIFAESKRKVSPEDVKKWLNQVRVEKQVAGVFVNESIETMSRIAKSLKLDVIQLHGDEKPADVAALRKLTGCEIWKALHHQDNTTQEIARFKDNVDGFVIDSSVKGSRGGTGVAFSWDCVPEYQQAAIGKRCFIAGGVNPDSITRLLKWQPEGIDLASGIEKNGQKDQNLMRLLEERMNRYVSISEEGHHHHHH soluble

The values you see were collected from the DeepSol protein solubility set.
